molecular target: C-X-C chemokine receptor type 3 (Homo sapiens, UniProt P49682); experiment: Displacement of [125I]IP-10 from CXCR3 receptor expressed in human PBMC in EDTA-anti-coagulated human plasma
Sequence (P49682 whole entry): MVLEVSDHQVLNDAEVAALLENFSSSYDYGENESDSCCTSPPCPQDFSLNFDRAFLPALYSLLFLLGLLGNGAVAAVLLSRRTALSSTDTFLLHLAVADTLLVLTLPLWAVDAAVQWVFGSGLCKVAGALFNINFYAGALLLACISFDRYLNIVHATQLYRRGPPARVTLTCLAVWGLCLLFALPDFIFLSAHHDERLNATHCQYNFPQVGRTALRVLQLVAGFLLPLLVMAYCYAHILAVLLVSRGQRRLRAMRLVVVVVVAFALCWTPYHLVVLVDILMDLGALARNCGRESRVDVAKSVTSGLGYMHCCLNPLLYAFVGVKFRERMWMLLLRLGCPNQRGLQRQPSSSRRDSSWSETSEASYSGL
readout label: pIC50
Scale note: pIC50 = -log10(concentration in M).

Entry "CCS(=O)(=O)CCN(C(=O)Cc1ccc(F)c(C(F)(F)F)c1)[C@H](C)c1nn2ccccc2c1-c1ccc(C#N)cc1" , pIC50 reported as 6.28

The reported value for "CCS(=O)(=O)CCN(C(=O)Cc1ccc(F)c(C(F)(F)F)c1)[C@H](C)c1nc2ccccn2c1-c1ccc(C#N)cc1" in terms of pIC50 is 7.68

compound "CCS(=O)(=O)CCN(C(=O)Cc1ccc(F)c(C(F)(F)F)c1)[C@H](C)c1nc2ccccc2nc1-c1ccc(C#N)cc1" , pIC50 observed: 6.92

Recorded pIC50 (compound "CCS(=O)(=O)CCN(C(=O)Cc1ccc(F)c(C(F)(F)F)c1)[C@H](C)c1nc2ncccn2c1-c1ccc(C#N)cc1" ): 7.10

Lab book: pIC50 of "CCS(=O)(=O)CCN(C(=O)Cc1ccc(F)c(C(F)(F)F)c1)[C@H](C)c1nc2ccccc2n1-c1ccc(C#N)cc1" noted as 7.46

Sample "CCS(=O)(=O)CCN(C(=O)Cc1ccc(F)c(C(F)(F)F)c1)[C@H](C)c1nc2ccccc2cc1-c1ccc(C#N)cc1" ; pIC50 observed: 7.68

In plain terms, "CCS(=O)(=O)CCN(C(=O)Cc1ccc(F)c(C(F)(F)F)c1)[C@H](C)c1cc2ccccc2nc1-c1ccc(C#N)cc1" has a documented pIC50 of 6.94

Noted for "CCS(=O)(=O)CCN(C(=O)Cc1ccc(F)c(C(F)(F)F)c1)[C@H](C)c1nc2c(c(=O)n1-c1ccc(C#N)cc1)CCCN2C" : its pIC50 reads 7.22

The compound listed as "CCS(=O)(=O)CCN(C(=O)Cc1ccc(F)c(C(F)(F)F)c1)[C@H](C)c1nc2ncccc2cc1-c1ccc(C#N)cc1" shows pIC50 equal to 7.57

----------
test: Mean residence time in rat at 0.5 mg/kg, iv; format: ADME, organism-based; design: dose 0.5 mg/kg, route intravenous; conditions: in vivo
readout label: MRT (min)
Please respond with the number in min and leave the unit unwritten.

In plain terms, "CCS(=O)(=O)CCN(C(=O)Cc1ccc(F)c(C(F)(F)F)c1)[C@H](C)c1nc2ccccc2cc1-c1ccc(C#N)cc1" has a documented MRT of 90

Record summary for "CCS(=O)(=O)CCN(C(=O)Cc1ccc(F)c(C(F)(F)F)c1)[C@H](C)c1nc2ncccc2c(=O)n1-c1ccc(C#N)cc1" : reported MRT = 31.8

# compound "CCS(=O)(=O)CCN(C(=O)Cc1ccc(F)c(C(F)(F)F)c1)[C@H](C)c1nc2ccccn2c1-c1ccc(C#N)cc1" ; its MRT = 15.6

MRT reported for this compound "CCS(=O)(=O)CCN(C(=O)Cc1ccc(F)c(C(F)(F)F)c1)[C@H](C)c1nc2ncccc2cc1-c1ccc(C#N)cc1" : 22.2

# MRT of "CCS(=O)(=O)CCN(C(=O)Cc1ccc(F)c(C(F)(F)F)c1)[C@H](C)c1nc2ccccn2c(=O)c1-c1ccc(C#N)cc1" = 84

Recorded result, "CCS(=O)(=O)CCN(C(=O)Cc1ccc(F)c(C(F)(F)F)c1)[C@H](C)c1nc2c(c(=O)n1-c1ccc(C#N)cc1)CCCN2C" , MRT: 21
